# procedure-summary: Solubility in water
# Type: physicochemical
Structures can show the parent of a compound that is named as a salt.

{"columns": ["molecule", "censoring-qualifier", "solubility (mg/mL)"],
 "data": [
  ["COc1cc2c(cc1OC)C(=O)N(CCCN(C)CCc1ccccc1)CO2.Cl [Compound O]", ">", 100],
  ["COc1ccc(CCN(C)CCCN2COc3cc(Cl)ccc3C2=O)cc1OC.Cl [Compound J]", "=", 120],
  ["COc1ccc(CCN(C)CCCN2COc3ccc(Br)cc3C2=O)cc1OC.Cl [Compound K]", "=", 90],
  ["COc1ccc(CCNCCCN2COc3cc(OC)c(OC)cc3C2=O)cc1OC.Cl [Compound P]", ">", 100],
  ["COc1ccc(CCN(C)CCCN2COc3ccccc3C2=O)cc1OC.Cl [Compound A]", "=", 100],
  ["COc1ccc(CCNCCN2COc3cc(OC)c(OC)cc3C2=O)cc1OC.Cl [Compound R]", "=", 120],
  ["COc1ccc2c(c1)OCN(CCCN(C)CCc1ccc(OC)c(OC)c1)C2=O.Cl [Compound E]", "=", 100],
  ["COc1ccc(CCN(C)CCCN2C(=O)c3cccc(OC)c3OC2C)cc1OC.Cl (centres unmarked) [Compound L]", "=", 100],
  ["COc1ccc(CCN(CCCN2COc3cc(OC)c(OC)cc3C2=O)Cc2ccccc2)cc1OC [Example 17, hydrochloride monohydrate]", "=", 60],
  ["COc1ccc(CCN(C)CCCN2C(=O)c3cc(OC)c(OC)cc3OC2C)cc1OC.Cl (centres unmarked) [Compound M]", "=", 100],
  ["COc1ccc(CCN(C)CCCN2COc3c(C)cccc3C2=O)cc1OC.Cl [Compound H]", "=", 80],
  ["COc1ccc(CCN(C)CCCN2COc3cc(C)ccc3C2=O)cc1OC.Cl [Compound G]", "=", 90],
  ["CCCCCCCC1Oc2cc(OC)c(OC)cc2C(=O)N1CCCN(C)CCc1ccc(OC)c(OC)c1 (centres unmarked) [Compound N, hydrochloride]", "=", 100],
  ["COc1ccc2c(c1)C(=O)N(CCCN(C)CCc1ccc(OC)c(OC)c1)CO2.Cl [Compound D]", ">", 100],
  ["COc1ccc(CCN(C)CCCN2COc3cc(OC)c(OC)cc3C2=O)cc1OC.Cl [Compound B]", ">", 100]
]}

----------
Recorded % modification of the ECG intervals: QRS (intraventricular conduction time), one value per entry.
# Tested on: rats anesthetized with pentobarbital sodium
# procedure-summary: Bradycardic effect and intracardiac conduction times (ECG, arterial pressure) in pentobarbital-anesthetized rats
# Format: in vivo
# test-parameters: 1 mg/kg iv; at peak of action
Structures can show the parent of a compound that is named as a salt.
endpoint-name: % modification of the ECG intervals: QRS (intraventricular conduction time)

{"columns": ["molecule", "target-or-test-system", "measurement"],
 "data": [
  ["COc1ccc(CCN(C)CCCN2COc3cc(OC)c(OC)cc3C2=O)cc1OC.Cl [Compound B]", "rats anesthetized with pentobarbital sodium", "+12%"],
  ["COc1ccc(CCN(C)CCCN2COc3cc(C)ccc3C2=O)cc1OC.Cl [Compound G]", "rats anesthetized with pentobarbital sodium", "+5%"],
  ["COc1ccc(CCN(C)CCCN2COc3cc(Cl)ccc3C2=O)cc1OC.Cl [Compound J]", "rats anesthetized with pentobarbital sodium", "+12%"],
  ["CCCCCCCC1Oc2cc(OC)c(OC)cc2C(=O)N1CCCN(C)CCc1ccc(OC)c(OC)c1 (stereo not shown) [Compound N, hydrochloride]", "rats anesthetized with pentobarbital sodium", "+12%"]
]}

----------
# Test system: rats anesthetized with pentobarbital sodium
# procedure-summary: Bradycardic effect and intracardiac conduction times (ECG, arterial pressure) in pentobarbital-anesthetized rats
# Assay type: in vivo
# test-parameters: 1 mg/kg iv; % change at peak of action
Counter-ions that a name gives are not always drawn.
endpoint-name: % HR (heart rate)

{"columns": ["compound", "measurement"],
 "data": [
  ["CCCCCCCC1Oc2cc(OC)c(OC)cc2C(=O)N1CCCN(C)CCc1ccc(OC)c(OC)c1 (stereo not shown) [Compound N, hydrochloride]", "-12%"],
  ["COc1ccc(CCN(C)CCCN2COc3cc(Cl)ccc3C2=O)cc1OC.Cl", "-16%"],
  ["COc1ccc(CCN(C)CCCN2COc3cc(C)ccc3C2=O)cc1OC.Cl", "-18%"],
  ["COc1ccc(CCN(C)CCCN2COc3cc(OC)c(OC)cc3C2=O)cc1OC.Cl", "-32%"]
]}

----------
# % fall in heart rate after 1 min listing for each entry below
# Tested on: anesthetized rats
# procedure-summary: Coronary ligation in anesthetized rats (antiarrhythmic activity and heart rate)
# Type: in vivo
# test-parameters: 2.5 mg/kg iv; 1 min after injection; % change relative to controls
Structures can show the parent of a compound that is named as a salt.

{"columns": ["compound", "% fall in heart rate after 1 min"],
 "data": [
  ["CCCCCCCC1Oc2cc(OC)c(OC)cc2C(=O)N1CCCN(C)CCc1ccc(OC)c(OC)c1 (centres unmarked) [Compound N, hydrochloride]", "-4%"],
  ["COc1ccc(CCN(C)CCCN2COc3cc(Cl)ccc3C2=O)cc1OC.Cl", "-32%"],
  ["COc1ccc(CCN(C)CCCN2COc3cc(OC)c(OC)cc3C2=O)cc1OC.Cl", "-50%"],
  ["COc1ccc(CCN(C)CCCN2COc3cc(C)ccc3C2=O)cc1OC.Cl", "-39%"],
  ["COc1ccc(CCN(C)CCCN2COc3ccccc3C2=O)cc1OC.Cl", "-30%"]
]}

----------
# procedure-summary: Acute intravenous toxicity in mice (LD50, Miller and Tainter)
# test-parameters: mouse, in vivo, mice weighing 20 to 22 g
# Protocol: The chemical compounds described above were subjected to toxicity controls. This study was carried out on conventional mice weighing 20 to 22 g. The watersoluble salts of the compounds of general formula I were administered intravenously. The 50% lethal dose (LD50) is calculated according to the method of Miller and Tainter (Proc. Soc. Exp. Biol. Med. 1944, 57, 261).

{"columns": ["compound", "result-units", "LD50"],
 "data": [
  ["COc1ccc(CCN(C)CCCN2COc3cc(OC)c(OC)cc3C2=O)cc1OC.Cl [Compound B]", "mg/kg", 48],
  ["COc1ccc(CCN(C)CCCN2COc3ccccc3C2=O)cc1OC.Cl [Compound A]", "mg/kg", 27]
]}
